Tested on: HLA A2
Type: binding, human
EXPERIMENTAL CONTEXT: RMA-S/A2 cells, in vitro binding assay
MEASURE NAME: binding to HLA A2 (in words)

Examples with their reported binding to HLA A2 (in words) follow.
SEQUENCE RECORD	binding to HLA A2 (in words)
NLLKRWQFV [CH38]	bind to HLA A2
YMDNNLFYV [CH7]	bind to HLA A2
ILLNEVPYV [CH2]	bind to HLA A2
WLLRDDWLL [CH31]	bind to HLA A2

binding to HLA A2 (in words) for LLLIFNNYL [CH36] ? do not seem to bind

binding to HLA A2 (in words) for QLLESLAPL [CH4] ? bind to HLA A2

binding to HLA A2 (in words) for LIQETLLFV [CH24] ? bind to HLA A2

binding to HLA A2 (in words) for ILQEAEQMV [CH17] ? bind to HLA A2

binding to HLA A2 (in words) for LLLTLGYAV (listed as Chlamydia pneumoniae) [CH19] ? do not seem to bind

binding to HLA A2 (in words) for VMLIFEKKV [CH14] ? do not seem to bind

binding to HLA A2 (in words) for QLLDEGKEL [CH1] ? bind to HLA A2

binding to HLA A2 (in words) for SILELLQFV [CH5] ? bind to HLA A2

binding to HLA A2 (in words) for RLLEIIWGV [CH28] ? bind to HLA A2

binding to HLA A2 (in words) for WLFDLRFSV (listed as Chlamydia pneumoniae) [CH22] ? bind to HLA A2

binding to HLA A2 (in words) for YLLEEIYTV [CH6] ? bind to HLA A2
